# Run description: Blood plasma levels of compound 1 in mouse after administration into abdominal cavity
# Assay type: in vivo
# Recorded conditions: intraperitoneal, 30 mg/kg into abdominal cavity, 4 hours, Balb/c mouse, read-out: blood plasma level
Measurement label: concentration at 4 h

I would be grateful if you could share the reported concentration at 4 h for CCCCN1C(=O)[C@@H]([C@H](O)C2CCCCC2)NC(=O)C12CCN(Cc1ccc(Oc3ccc(C(=O)O)cc3)cc1)CC2.Cl [compound 1, hydrochloride] .
22 nM

* * *

# Run description: Blood plasma levels of compound 1 in mouse after administration into abdominal cavity
# Type: in vivo
# Recorded conditions: intraperitoneal, 30 mg/kg into abdominal cavity, 0.5 hours, Balb/c mouse, read-out: blood plasma level
Measurement label: concentration at 0.5 h (nM)
Please reply with the bare figure in nM and do not write the unit itself.

Need concentration at 0.5 h, item CCCCN1C(=O)[C@@H]([C@H](O)C2CCCCC2)NC(=O)C12CCN(Cc1ccc(Oc3ccc(C(=O)O)cc3)cc1)CC2.Cl [compound 1, hydrochloride]
1610

Numbers sourced from patent US20060251651A1.
